test: Toxicokinetics, rabbit DRF EFD study; conditions: female, in vivo, 3 mg/kg/day
RECORDED_ENDPOINT: Cmax (ng/mL)
Give bare numbers, in ng/mL.

## Input If you can, please state the reported Cmax value of `CS(=O)(=O)c1ccc(-c2cnc(N)c(-c3ccc(C(F)(F)F)nc3)c2)cc1` .
## Output 857

* * *

assay: Toxicokinetics, rabbit main EFD study; settings: female, in vivo, 3 mg/kg/day
RECORDED_ENDPOINT: Tmax (h)
Numbers only, in h.

## Input Tmax lookup needed for CS(=O)(=O)c1ccc(-c2cnc(N)c(-c3ccc(C(F)(F)F)nc3)c2)cc1 [MMV390048] , thanks.
## Output 2

* * *

test: Toxicokinetics, rat investigative EFD study; format: in vivo; conditions: female, Sprague-Dawley (Crl: OFA SD), rat, plasma, po, 40 mg/kg/day, AUC(0−t), rat investigative EFD, 40 mg/kg/day oral, GD6
RECORDED_ENDPOINT: AUC(0-t)
Remember to follow the number with its unit.

## Input What value of AUC(0-t) has been reported for the following compound? `CS(=O)(=O)c1ccc(-c2cnc(N)c(-c3ccc(C(F)(F)F)nc3)c2)cc1`
## Output 213 µg·h/mL

* * *

assay: Toxicokinetics, rat main EFD study; type: in vivo; settings: female, Sprague-Dawley (Crl:CD SD), rat, plasma, po, 20 mg/kg/day, AUC(0−t), rat main EFD, 20 mg/kg/day oral, GD6
RECORDED_ENDPOINT: AUC(0-t) (ng·h/mL)
One number for each entry, in ng·h/mL.

## Input Which AUC(0-t) value belongs to CS(=O)(=O)c1ccc(-c2cnc(N)c(-c3ccc(C(F)(F)F)nc3)c2)cc1 [MMV390048] ?
## Output 70000

* * *

test: Toxicokinetics, rabbit main EFD study; conditions: female, in vivo, 3 mg/kg/day
RECORDED_ENDPOINT: AUC(0-t) (ng·h/mL)
One number for each entry, in ng·h/mL.

## Input Need AUC(0-t) of CS(=O)(=O)c1ccc(-c2cnc(N)c(-c3ccc(C(F)(F)F)nc3)c2)cc1 [MMV390048] , thanks.
## Output 13600

* * *

target: All other off‐targets including kinases tested; experiment: In vitro off-target and kinase panels, all other targets; conditions: read-out: IC50s, all other off‐targets including kinases tested, human
pIC50: −log10 of the molar value.
RECORDED_ENDPOINT: pIC50

## Input Please report the recorded pIC50 for `CS(=O)(=O)c1ccc(-c2cnc(N)c(-c3ccc(C(F)(F)F)nc3)c2)cc1` .
## Output ≤ 4.70

* * *

assay: Toxicokinetics, rat investigative EFD study; type: in vivo; conditions: female, Sprague-Dawley (Crl: OFA SD), rat, plasma, po, 40 mg/kg/day
RECORDED_ENDPOINT: Tmax (h)
One number for each entry, in h.

## Input For the compound `CS(=O)(=O)c1ccc(-c2cnc(N)c(-c3ccc(C(F)(F)F)nc3)c2)cc1` , what Tmax is on record?
## Output 7

* * *

assay: Toxicokinetics, rat main EFD study; type: in vivo; details: female, Sprague-Dawley (Crl:CD SD), rat, plasma, po, 20 mg/kg/day, C max, rat main EFD, 20 mg/kg/day oral, GD6
RECORDED_ENDPOINT: Cmax (ng/mL)
Numbers only, in ng/mL.

## Input For the compound shown here, `CS(=O)(=O)c1ccc(-c2cnc(N)c(-c3ccc(C(F)(F)F)nc3)c2)cc1` , give the reported Cmax.
## Output 4950

* * *

assay: Toxicokinetics, rabbit main EFD study; conditions: female, in vivo, 10 mg/kg/day
RECORDED_ENDPOINT: Tmax (h)
One number for each entry, in h.

## Input Report Tmax for `CS(=O)(=O)c1ccc(-c2cnc(N)c(-c3ccc(C(F)(F)F)nc3)c2)cc1` please.
## Output 2

* * *

assay: Toxicokinetics, rat DRF EFD study; assay type: in vivo; details: female, Sprague-Dawley (Crl:CD SD), rat, plasma, po, 60 mg/kg/day, AUC(0−t), rat DRF EFD, 60 mg/kg/day oral, GD6
RECORDED_ENDPOINT: AUC(0-t) (µg·h/mL)
Give bare numbers, in µg·h/mL.

## Input Name the reported AUC(0-t) value associated with the compound `CS(=O)(=O)c1ccc(-c2cnc(N)c(-c3ccc(C(F)(F)F)nc3)c2)cc1`
## Output 229

* * *

experiment: Toxicokinetics, rabbit DRF EFD study; conditions: female, in vivo, 1 mg/kg/day
RECORDED_ENDPOINT: AUC(0-t) (ng·h/mL)
Give bare numbers, in ng·h/mL.

## Input # AUC(0-t) lookup, item `CS(=O)(=O)c1ccc(-c2cnc(N)c(-c3ccc(C(F)(F)F)nc3)c2)cc1`
## Output 3750

* * *

test: Toxicokinetics, rabbit DRF EFD study; conditions: female, in vivo, 1 mg/kg/day
RECORDED_ENDPOINT: Cmax (ng/mL)
Answers are plain numbers, in ng/mL.

## Input Field request: Cmax | item: `CS(=O)(=O)c1ccc(-c2cnc(N)c(-c3ccc(C(F)(F)F)nc3)c2)cc1`
## Output 267

* * *

experiment: Toxicokinetics, rat main EFD study; assay type: in vivo; details: female, Sprague-Dawley (Crl:CD SD), rat, plasma, po, 2 mg/kg/day, C max, rat main EFD, 2 mg/kg/day oral, GD17
RECORDED_ENDPOINT: Cmax (ng/mL)
One number for each entry, in ng/mL.

## Input Fill in the blank: the reported Cmax of CS(=O)(=O)c1ccc(-c2cnc(N)c(-c3ccc(C(F)(F)F)nc3)c2)cc1 [MMV390048] is ____.
## Output 681

* * *

experiment: Toxicokinetics, rat investigative EFD study; type: in vivo; details: female, Sprague-Dawley (Crl: OFA SD), rat, plasma, po, 40 mg/kg/day, C max, rat investigative EFD, 40 mg/kg/day oral, GD6
RECORDED_ENDPOINT: Cmax

## Input Report Cmax for `CS(=O)(=O)c1ccc(-c2cnc(N)c(-c3ccc(C(F)(F)F)nc3)c2)cc1` please.
## Output 11300 ng/mL

* * *

assay: Toxicokinetics, rabbit main EFD study; settings: female, in vivo, 10 mg/kg/day
RECORDED_ENDPOINT: AUC(0-t) (ng·h/mL)
Answers are plain numbers, in ng·h/mL.

## Input Param item = CS(=O)(=O)c1ccc(-c2cnc(N)c(-c3ccc(C(F)(F)F)nc3)c2)cc1 [MMV390048] ; retrieve measured AUC(0-t).
## Output 53300

* * *

experiment: Toxicokinetics, rabbit DRF EFD study; conditions: female, in vivo, 10 mg/kg/day
RECORDED_ENDPOINT: Tmax (h)
Answers are plain numbers, in h.

## Input Suppose we examine the compound `CS(=O)(=O)c1ccc(-c2cnc(N)c(-c3ccc(C(F)(F)F)nc3)c2)cc1` ; what Tmax value has been reported?
## Output 4

* * *

experiment: Toxicokinetics, rat DRF EFD study; format: in vivo; settings: female, Sprague-Dawley (Crl:CD SD), rat, plasma, po, 60 mg/kg/day, AUC(0−t), rat DRF EFD, 60 mg/kg/day oral, GD17
RECORDED_ENDPOINT: AUC(0-t) (µg·h/mL)
Answers are plain numbers, in µg·h/mL.

## Input Could you tell me which AUC(0-t) is on file for `CS(=O)(=O)c1ccc(-c2cnc(N)c(-c3ccc(C(F)(F)F)nc3)c2)cc1` ?
## Output 361

* * *

assay: Toxicokinetics, rat main EFD study; type: in vivo; details: female, Sprague-Dawley (Crl:CD SD), rat, plasma, po, 20 mg/kg/day, C max, rat main EFD, 20 mg/kg/day oral, GD17
RECORDED_ENDPOINT: Cmax (ng/mL)
Give bare numbers, in ng/mL.

## Input Returns the measured Cmax for the input molecule. Input: `CS(=O)(=O)c1ccc(-c2cnc(N)c(-c3ccc(C(F)(F)F)nc3)c2)cc1`
## Output 5190

* * *

experiment: Toxicokinetics, rabbit main EFD study; settings: female, in vivo, 1 mg/kg/day
RECORDED_ENDPOINT: Tmax (h)
Give bare numbers, in h.

## Input Which Tmax reading was recorded for the compound `CS(=O)(=O)c1ccc(-c2cnc(N)c(-c3ccc(C(F)(F)F)nc3)c2)cc1` ?
## Output 4

* * *

experiment: Toxicokinetics, rabbit DRF EFD study; details: female, in vivo, 10 mg/kg/day
RECORDED_ENDPOINT: Cmax (ng/mL)
Give bare numbers, in ng/mL.

## Input Sample `CS(=O)(=O)c1ccc(-c2cnc(N)c(-c3ccc(C(F)(F)F)nc3)c2)cc1` — what was its Cmax?
## Output 3790

* * *

target: TSF1 (Homo sapiens, UniProt O75716)
Sequence (O75716 whole entry): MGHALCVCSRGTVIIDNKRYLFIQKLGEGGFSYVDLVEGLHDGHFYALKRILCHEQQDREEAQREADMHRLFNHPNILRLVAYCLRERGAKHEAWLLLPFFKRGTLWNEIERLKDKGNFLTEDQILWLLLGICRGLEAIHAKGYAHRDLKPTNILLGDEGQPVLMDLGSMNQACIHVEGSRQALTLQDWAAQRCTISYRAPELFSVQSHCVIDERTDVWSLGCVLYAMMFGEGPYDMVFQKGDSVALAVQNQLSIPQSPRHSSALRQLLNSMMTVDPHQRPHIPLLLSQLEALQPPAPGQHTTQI
RECORDED_ENDPOINT: IC50 (µM)
Answers are plain numbers, in µM.

## Input # get_value(readout='IC50', item= `CS(=O)(=O)c1ccc(-c2cnc(N)c(-c3ccc(C(F)(F)F)nc3)c2)cc1` )
## Output 7.3

* * *

assay: Toxicokinetics, rat investigative EFD study; type: in vivo; details: female, Sprague-Dawley (Crl: OFA SD), rat, plasma, po, 40 mg/kg/day, C max, rat investigative EFD, 40 mg/kg/day oral, GD17
RECORDED_ENDPOINT: Cmax (ng/mL)
Give bare numbers, in ng/mL.

## Input Endpoint output: Cmax of `CS(=O)(=O)c1ccc(-c2cnc(N)c(-c3ccc(C(F)(F)F)nc3)c2)cc1` . Value?
## Output 17100

These entries and their values trace back to paper PMC9321963.
